System: NL-RLuc virus
Assay: Inhibition of HIV Replication (NL-RLuc luciferase reporter virus in MT-2 cells)
Type: cell-based
Details: Human immunodeficiency virus 1, MT2, 120 h
pEC50: −log10 of the molar value.
Known pEC50 of a selection of compounds
REPORTED METRIC: pEC50

>>> quantitative_result("Cc1nc(C)c([C@H](OC(C)(C)C)C(=O)O)c(N2CCC(c3nc(C(C)C)no3)CC2)c1-c1ccc(OCCc2ccc(F)cc2)cc1")
5.99
>>> quantitative_result("Cc1nc(C)c([C@H](OC(C)(C)C)C(=O)O)c(N2CCC(C)CC2)c1-c1ccc(OCCc2ccc(F)cc2)cc1")
7.77
>>> quantitative_result("Cc1nc(C)c([C@H](OC(C)(C)C)C(=O)O)c(N2CCC(C3CC3)C2)c1-c1ccc(OCCc2ccc(F)cc2)cc1 (stereo partly shown)")
7.38
>>> quantitative_result("Cc1nc(C)c([C@H](OC(C)(C)C)C(=O)O)c(N2CC(C)(C)C2)c1-c1ccc(OCCc2ccc(F)cc2)cc1")
5.52
>>> quantitative_result("Cc1nc(C)c([C@H](OC(C)(C)C)C(=O)O)c(N2CCC(C)(C)CC2)c1-c1ccc(Oc2ccccc2)cc1")
7.43
>>> quantitative_result("Cc1ncsc1CCOc1ccc(-c2c(C)nc(C)c([C@H](OC(C)(C)C)C(=O)O)c2N2CCC(C)(C)CC2)cc1")
9.00
>>> quantitative_result("Cc1nc(C)c([C@H](OC(C)(C)C)C(=O)O)c(N2CCC(C)(C)CC2)c1-c1ccc(OCc2ccc(F)cc2)cc1")
7.92
>>> quantitative_result("COc1cc(-c2c(C)nc(C)c([C@H](OC(C)(C)C)C(=O)O)c2N2CCC(C)(C)CC2)cc(OC)c1OC")
6.58
>>> quantitative_result("COc1cccc(CCOc2ccc(-c3c(C)nc(C)c([C@H](OC(C)(C)C)C(=O)O)c3N3CCC(C)(C)CC3)cc2)c1")
8.70
>>> quantitative_result("Cc1nc(C)c([C@H](OC(C)(C)C)C(=O)O)c(N2CCC(C)(C)CC2)c1-c1ccc(OCCc2ccc(C(N)=O)cc2)cc1")
8.40
>>> quantitative_result("Cc1nc(C)c([C@H](OC(C)(C)C)C(=O)O)c(N2CCC(C)(C)CC2)c1-c1cnc(OCCc2ccc(F)cc2)nc1")
8.05
>>> quantitative_result("CCOc1ccc(-c2c(C)nc(C)c([C@H](OC(C)(C)C)C(=O)O)c2N2CCC(C)(C)CC2)cc1")
7.57
>>> quantitative_result("Cc1ccc(-c2c(C)nc(C)c([C@H](OC(C)(C)C)C(=O)O)c2N2CCC(C)(C)CC2)cc1OCc1ccccc1")
7.03
